Sourced from paper PMC3693772

System: CHO-B2 cells (human cloned B2 receptor)
Assay type: cell-based, Chinese hamster ovary cells
Conditions: 1 h at 37 °C; enzyme immunoassay; mean ± SEM, 3 to 6 experiments; read-out: Total PGs production in CHO-B2 cells (EC50)
measurement kind: EC50 (nM)
One number for each entry, in nM.

Recall and state the measured EC50 for H-RPPGFSPFR-OH [BK] .
0.0263

* * *

Test system: h-CM cells
Assay type: cell-based, human
Conditions: 1 h at 37 °C; enzyme immunoassay; mean ± SEM, 3 to 6 experiments; read-out: PGE2 production in h-CM cells (EC50)
measurement kind: EC50

Consider the reported EC50 for these molecules:
>  <molecule>
CCCC[P+](CCCC)(CCCC)Cc1ccc(NC(=O)[C@H](Cc2ccc3ccccc3c2)NC(=NC2CCCCC2)NC2CCCCC2)cc1.[Cl-] [(S)-WIN-64338]

>  <measured result>
> 10000 nM

$$$$
>  <molecule>
N=C(N)NCCC[C@H](N)C(=O)N1CCC[C@H]1C(=O)N1CCC[C@H]1C(=O)NCC(=O)N[C@@H](Cc1ccccc1)C(=O)N[C@@H](CO)C(=O)N1CCC[C@H]1C(=O)N[C@@H](Cc1ccccc1)C(=O)O

>  <measured result>
> 1000 nM

$$$$

Consider now this further molecule.
Recall and state the measured EC50 for N=C(N)NCCC[C@H](NC(=O)[C@H](Cc1ccccc1)NC(=O)[C@@H]1CCCN1C(=O)[C@H](CO)NC(=O)[C@H](Cc1ccccc1)NC(=O)CNC(=O)[C@@H]1C[C@@H](O)CN1C(=O)[C@@H]1CCCN1C(=O)[C@@H](N)CCCNC(=N)N)C(=O)O .
10.1 nM
